Reference source: the SangsterLogP compilation

Value type: logP
API note: the answer field is a bare number with no unit suffix.

## Input For the compound shown here, O=C1NC(=O)c2ccccc21 , give the reported logP.
## Output 1.04

----------
# Method summary: method code SF, from DOI: 10.1021/js9601804, PMID: 9344176
# Conditions: pH 8.0
Value type: logD
API note: the answer field is a bare number with no unit suffix.

## Input For the compound shown here, O=C1COc2ccccc2N1 , give the reported logD.
## Output 1.31

----------
# Method summary: method code SF-GLC, from DOI: 10.1021/jo01265a071
Value type: logP
API note: the answer field is a bare number with no unit suffix.

## Input For the compound shown here, CCCCCl , give the reported logP.
## Output 2.39

----------
Answer each item with its documented logD.
# Method summary: method code SF-AS, from DOI: 10.1111/j.2042-7158.1989.tb06480.x, PMID: 2570831
# Conditions: pH 7.4
API note: the answer field is a bare number with no unit suffix.

## Input For the molecule shown here, Cn1cnc2c(N)ncnc21 , give the reported logD.
## Output -0.03

## Input For the molecule shown here, Nc1ncnc2[nH]cnc12 , give the reported logD.
## Output -0.05

----------
# Method summary: method code SF-AS, from DOI: 10.1016/j.arabjc.2011.11.013
Value type: logP
API note: the answer field is a bare number with no unit suffix.

## Input For the molecule shown here, Nc1ccc(S(=O)(=O)NCC(=O)Nc2ccc(Cl)cc2C(=O)c2ccccc2)cc1 , give the reported logP.
## Output 3.24

## Input For the molecule shown here, O=C(CNc1ccc([N+](=O)[O-])cc1)Nc1ccc(Cl)cc1C(=O)c1ccccc1 , give the reported logP.
## Output 4.68

----------
# Method summary: method code SF-AS, from Korenman, I.; Lineva, S.; Gezikova, N. (1978). Extraction of naphthol-sulfonic acids from aqueous solution. Zh. Prikl. Khim., 51(4)869-871.
Value type: logP
API note: the answer field is a bare number with no unit suffix.

## Input For the compound shown here, CC1=C(C(N)=O)SCCO1 , give the reported logP.
## Output -0.22

----------
# Conditions: pH 7.4
Value type: logD
API note: the answer field is a bare number with no unit suffix.

## Input For the compound shown here, CCCCSCS(=O)CC(CO)NC(=O)C=Cc1c(C)[nH]c(=O)[nH]c1=O (stereo unspecified) , give the reported logD.
## Output 0.14

----------
Value type: logP
API note: the answer field is a bare number with no unit suffix.

## Input For the compound shown here, CCNc1ccc(C(=O)OCCN(C)C)cc1 , give the reported logP.
## Output 2.62

----------
Answer each item with its documented logP.
API note: the answer field is a bare number with no unit suffix.

## Input For the molecule shown here, Cc1cc(O)no1 , give the reported logP.
## Output 0.26

## Input For the molecule shown here, CCN(CC)C(=O)SCc1ccc(Cl)cc1 , give the reported logP.
## Output 3.78

----------
Value type: logP

## Input For the compound shown here, COc1cc2nc(N3CCN(C(=O)C4COc5ccccc5O4)CC3)nc(N)c2cc1OC (stereo unspecified) , give the reported logP.
## Output 3.38

----------
# Method summary: method code SF-RC, from DOI: 10.1016/j.bmc.2005.04.014, PMID: 15911305
# Conditions: pH 7.4
Value type: logD
API note: the answer field is a bare number with no unit suffix.

## Input For the compound shown here, Nc1nc(OCc2cccc(I)c2)c2ncn(C3CC(O)C(CO)O3)c2n1 (stereo unspecified) , give the reported logD.
## Output 1.4
